Data provenance is patent US10646469B2.

assay: Cytotoxicity in RT-qPCR assay (Cp of housekeeping gene β-actin); assay type: cell-based; settings: African green monkey, RT-qPCR serotype 1 TC974#666, Protocol A

Molecule: COc1cc(NC(C(=O)c2c[nH]c3cc(F)c(C(F)(F)F)cc23)c2ccc(F)cc2OC)cc(OCCO)c1 (single isomer, unassigned) [Compound 3A]
CC50 at 3 days: > 2500 nM
--
Molecule: COc1cc(NC(C(=O)c2c[nH]c3ccc(OC(F)(F)F)cc23)c2ccc(F)cc2OC)cc(OCCO)c1 (single isomer, unassigned) [Compound 5B]
CC50 at 3 days: > 2500 nM
--
Molecule: COc1cc(NC(C(=O)c2c[nH]c3cc(OC)c(OC(F)(F)F)cc23)c2ccc(Cl)cc2OC)cc(OCCO)c1 (single isomer, unassigned) [Compound 14A]
CC50 at 3 days: > 2100 nM
--
Molecule: COc1cc(NC(C(=O)c2c[nH]c3c(C)cc(OC(F)(F)F)cc23)c2ccc(Cl)cc2OC)cc(OCCO)c1 (single isomer, unassigned) [Compound 16A]
CC50 at 3 days: > 2500 nM
--
Molecule: COc1cc(NC(C(=O)c2c[nH]c3c(C)cc(OC(F)(F)F)cc23)c2ccc(F)cc2OC)cc(OCCO)c1 (single isomer, unassigned) [Compound 8A]
CC50 at 3 days: 2100 nM
--
Molecule: COc1cc(NC(C(=O)c2c[nH]c3c(C)cc(C(F)(F)F)cc23)c2ccc(F)cc2OC)cc(OCCO)c1 (single isomer, unassigned) [Compound 4B]
CC50 at 3 days: > 2500 nM
